B1: TPR 5TU (parent)
chain: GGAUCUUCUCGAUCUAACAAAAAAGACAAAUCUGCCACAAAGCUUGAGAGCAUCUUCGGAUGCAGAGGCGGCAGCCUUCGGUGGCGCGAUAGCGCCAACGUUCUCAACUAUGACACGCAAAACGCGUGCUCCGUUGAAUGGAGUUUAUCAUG

variants of: B1; experiment: polymerase ribozyme fitness, log enrichment relative to wild type (log ratio); higher = more active; in vitro selection for triplet polymerase activity
Fewer inactive variants are shown than the library holds.
Measured quantity: polymerase ribozyme fitness (log ratio)

{"columns": ["Mutations", "Measured quantity", "Observed"],
 "data": [
  ["C5U G74A A91U C93G", "polymerase ribozyme fitness (log ratio)", "≤ -4.2"],
  ["G83A A110C C123G", "polymerase ribozyme fitness (log ratio)", "≤ -4.2"],
  ["U6G A47C C87A", "polymerase ribozyme fitness (log ratio)", "≤ -4.2"],
  ["U4A C54U U56A C79G C85U C103G C116U G143C", "polymerase ribozyme fitness (log ratio)", "≤ -4.2"],
  ["C76G G84A C118A G141C", "polymerase ribozyme fitness (log ratio)", "≤ -4.2"],
  ["C5U A12U C18G G70C G80A C93G C95U A98G U144G", "polymerase ribozyme fitness (log ratio)", "≤ -4.2"],
  ["A20U C72U C85A U134C A150C", "polymerase ribozyme fitness (log ratio)", "≤ -4.2"],
  ["A12U C35G G46A C57G A60C G92U C108G G143A A147G", "polymerase ribozyme fitness (log ratio)", "≤ -4.2"],
  ["A39U G92C U127A", "polymerase ribozyme fitness (log ratio)", "≤ -4.2"],
  ["A41U U56A C93A A121U", "polymerase ribozyme fitness (log ratio)", -3.16],
  ["A52C C69G G84U A115C", "polymerase ribozyme fitness (log ratio)", "≤ -4.2"],
  ["A47C U56A C87A C93G A121U C132G G143A U144C", "polymerase ribozyme fitness (log ratio)", "≤ -4.2"],
  ["U33C G143C", "polymerase ribozyme fitness (log ratio)", "≤ -4.2"],
  ["U15G G34A C75A A150U", "polymerase ribozyme fitness (log ratio)", "≤ -4.2"],
  ["A122G G133U", "polymerase ribozyme fitness (log ratio)", -3.59],
  ["A30U C76A", "polymerase ribozyme fitness (log ratio)", -3.82],
  ["A16C U31C G50A G86A", "polymerase ribozyme fitness (log ratio)", -3.16],
  ["A49G C75U C96G", "polymerase ribozyme fitness (log ratio)", -2.68],
  ["A21C A66G", "polymerase ribozyme fitness (log ratio)", -3.91],
  ["G50U A64G C103G C125A A142G", "polymerase ribozyme fitness (log ratio)", "≤ -4.2"],
  ["G58U U82A C116U", "polymerase ribozyme fitness (log ratio)", 0.803],
  ["C35A U61A C103G U104C C116U", "polymerase ribozyme fitness (log ratio)", "≤ -4.2"],
  ["A16U A47U U55A C87U", "polymerase ribozyme fitness (log ratio)", -2.97],
  ["C99U C103A G128A G136U U148G", "polymerase ribozyme fitness (log ratio)", "≤ -4.2"],
  ["A17U U146C", "polymerase ribozyme fitness (log ratio)", -0.884],
  ["A19U A41C G58A C85G", "polymerase ribozyme fitness (log ratio)", -2.71],
  ["U45A A47U G80U U90A", "polymerase ribozyme fitness (log ratio)", "≤ -4.2"],
  ["A16C U82G", "polymerase ribozyme fitness (log ratio)", -1.06],
  ["C5A A20C", "polymerase ribozyme fitness (log ratio)", 0.413],
  ["C57A C87G", "polymerase ribozyme fitness (log ratio)", -3.18],
  ["A37U C54U C93U", "polymerase ribozyme fitness (log ratio)", -2.44],
  ["A20G A22U C93G", "polymerase ribozyme fitness (log ratio)", -4.09],
  ["G59A U127C", "polymerase ribozyme fitness (log ratio)", -1.23],
  ["C8A G88A", "polymerase ribozyme fitness (log ratio)", "≤ -4.2"],
  ["C95U A142G", "polymerase ribozyme fitness (log ratio)", -1.66],
  ["A16U C35U G92U C116G", "polymerase ribozyme fitness (log ratio)", -3.21]
]}

// data source = the RNAGym collection of RNA variant scans (doi:10.1073/pnas.2313332121)
